Origin of the recorded values: patent US8853230B2

Form field: pIC50 (one value per entry).
tested-on: JAK3 (Homo sapiens, UniProt P52333)
Construct: 5 μl of catalytic domain recombinant Kinase enzyme+Tyr peptide substrate (Invitrogen, Calif.)
Sequence (P52333 822-1111 limits assumed): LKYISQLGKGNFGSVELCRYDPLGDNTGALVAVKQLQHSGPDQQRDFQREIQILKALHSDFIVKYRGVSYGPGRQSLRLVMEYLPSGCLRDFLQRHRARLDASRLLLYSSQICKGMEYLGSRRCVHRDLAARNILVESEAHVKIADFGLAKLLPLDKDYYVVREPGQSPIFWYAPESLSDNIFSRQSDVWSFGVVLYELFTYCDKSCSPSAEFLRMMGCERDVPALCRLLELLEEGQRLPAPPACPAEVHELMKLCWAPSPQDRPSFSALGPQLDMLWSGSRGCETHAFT
test: Z'-LYTE kinase assay, JAK3 tyrosine phosphorylation activity
pIC50: −log10 of the molar value.

input: Need pIC50, item CC[C@@H](C)Nc1nc(Nc2cccc(NC(C)=O)c2)ncc1C(N)=O [Example 238]
output: > 9.00

input: Need pIC50, item CC(=O)Nc1cc(Cl)cc(Nc2ncc(C(N)=O)c(NCc3ccccc3)n2)c1 [Example 260]
output: 7.00 to 8.00

input: Need pIC50, item NC(=O)c1cnc(Nc2cccc(NC(=O)N3CCOCC3)c2)nc1NCc1ccccc1 [Example 217]
output: 8.00 to 9.00

input: Need pIC50, item NC(=O)c1cnc(Nc2cccc(NC(=O)c3ccccn3)c2)nc1NCc1ccccc1F [Example 295]
output: 7.00 to 8.00

input: Need pIC50, item CC(=O)Nc1cccc(Nc2cc(NC3CCCC3)c(C(N)=O)cn2)c1 [Example 330]
output: 6.00 to 7.00

----------
tested-on: JAK3 (Homo sapiens)
Construct: 5 μl of catalytic domain recombinant Kinase enzyme+Tyr peptide substrate (Invitrogen, Calif.)
test: Z'-LYTE kinase assay, JAK3 tyrosine phosphorylation activity
pIC50: −log10 of the molar value.
endpoint-label: pIC50

input: Need pIC50, item COC[C@@H]1CCCN1C(=O)Nc1cccc(Nc2ncc(C(N)=O)c(NCc3ccccc3)n2)c1
output: 8.00 to 9.00

input: Need pIC50, item COCC(=O)Nc1cccc(Nc2ncc(C(N)=O)c(NC(C)C)n2)c1
output: 8.00 to 9.00

input: Need pIC50, item CC(=O)Nc1cccc(Nc2ncc(C(N)=O)c(NCCc3ccccc3)n2)c1
output: 7.00 to 8.00

input: Need pIC50, item NC(=O)c1cnc(Nc2cccc(NC(=O)C3CCOC3)c2)nc1NCc1ccccc1 (centres unmarked)
output: 8.00 to 9.00

input: Need pIC50, item NC(=O)c1cnc(Nc2cccc(NC(=O)N3CCCC3)c2)cc1NCc1cccc(F)c1
output: 8.00 to 9.00

input: Need pIC50, item CC(=O)Nc1cccc(Nc2ncc(C(N)=O)c(NC[C@H](C)O)n2)c1
output: 7.00 to 8.00

input: Need pIC50, item C[C@@H](Nc1nc(Nc2cccc(NC(=O)[C@@H]3CCCO3)c2)ncc1C(N)=O)c1ccccc1
output: 8.00 to 9.00

input: Need pIC50, item CC(=O)Nc1cccc(Nc2ncc(C(N)=O)c(NCCN3CCOCC3)n2)c1
output: 7.00 to 8.00

----------
Form field: IC50 (one value per entry).
tested-on: TYK2 (Homo sapiens)
Construct: 5 μl of catalytic domain recombinant Kinase enzyme+Tyr peptide substrate (Invitrogen, Calif.)
Sequence (P29597 897-1176 limits assumed): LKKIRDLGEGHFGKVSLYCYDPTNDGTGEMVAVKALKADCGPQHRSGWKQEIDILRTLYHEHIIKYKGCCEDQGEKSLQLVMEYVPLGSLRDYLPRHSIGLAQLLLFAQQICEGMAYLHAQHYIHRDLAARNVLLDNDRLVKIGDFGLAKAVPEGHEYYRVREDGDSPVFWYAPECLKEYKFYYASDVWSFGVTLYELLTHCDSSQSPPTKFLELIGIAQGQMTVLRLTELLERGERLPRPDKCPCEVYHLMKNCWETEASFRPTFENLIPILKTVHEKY
test: Z'-LYTE kinase assay, TYK2 tyrosine phosphorylation activity

Below, 5 compounds whose answers are already recorded.
C[C@@H](Nc1nc(Nc2ccc(Cl)c(NC(=O)C3CC3)c2)ncc1C(N)=O)c1ccccc1: 100 to 1000 nM
C[C@@H](Nc1nc(Nc2ccc(Cl)c(NC(=O)N3CCCC3)c2)ncc1C(N)=O)c1ccccc1: 100 to 1000 nM
COC(=O)Nc1cccc(Nc2ncc(C(N)=O)c(NCC(F)(F)F)n2)c1: 10 to 100 nM
NC(=O)c1cnc(Nc2ccc(Cl)c(NC(=O)N3CCCC3)c2)nc1NCC1CCC1: > 1000 nM
C[C@@H]1CCCN1C(=O)Nc1cccc(Nc2ncc(C(N)=O)c(N[C@H](C)c3ccccc3)n2)c1: 10 to 100 nM

input: Need IC50, item NC(=O)c1cnc(Nc2cccc(NC(=O)C3CC3)c2)nc1NCc1ccccc1
output: 1 to 10 nM

input: Need IC50, item NC(=O)c1cnc(Nc2ccc(Cl)c(NC(=O)NC3CC3)c2)nc1NCc1ccccc1
output: 100 to 1000 nM

input: Need IC50, item CC(=O)Nc1cccc(Nc2ncc(C(N)=O)c(NCc3cccc(Cl)c3)n2)c1
output: 10 to 100 nM

input: Need IC50, item C[C@@H](Nc1nc(Nc2cccc(NC(=O)N3CC=CC3)c2)ncc1C(N)=O)c1ccccc1
output: 10 to 100 nM

input: Need IC50, item CC(=O)Nc1cccc(Nc2cc(NCc3ccc4c(c3)OCO4)c(C(N)=O)cn2)c1
output: > 1000 nM
